Entries and their pEC50
# target system: Glutamate receptor 4 (Homo sapiens, UniProt P48058)
# Sequence (P48058 whole entry): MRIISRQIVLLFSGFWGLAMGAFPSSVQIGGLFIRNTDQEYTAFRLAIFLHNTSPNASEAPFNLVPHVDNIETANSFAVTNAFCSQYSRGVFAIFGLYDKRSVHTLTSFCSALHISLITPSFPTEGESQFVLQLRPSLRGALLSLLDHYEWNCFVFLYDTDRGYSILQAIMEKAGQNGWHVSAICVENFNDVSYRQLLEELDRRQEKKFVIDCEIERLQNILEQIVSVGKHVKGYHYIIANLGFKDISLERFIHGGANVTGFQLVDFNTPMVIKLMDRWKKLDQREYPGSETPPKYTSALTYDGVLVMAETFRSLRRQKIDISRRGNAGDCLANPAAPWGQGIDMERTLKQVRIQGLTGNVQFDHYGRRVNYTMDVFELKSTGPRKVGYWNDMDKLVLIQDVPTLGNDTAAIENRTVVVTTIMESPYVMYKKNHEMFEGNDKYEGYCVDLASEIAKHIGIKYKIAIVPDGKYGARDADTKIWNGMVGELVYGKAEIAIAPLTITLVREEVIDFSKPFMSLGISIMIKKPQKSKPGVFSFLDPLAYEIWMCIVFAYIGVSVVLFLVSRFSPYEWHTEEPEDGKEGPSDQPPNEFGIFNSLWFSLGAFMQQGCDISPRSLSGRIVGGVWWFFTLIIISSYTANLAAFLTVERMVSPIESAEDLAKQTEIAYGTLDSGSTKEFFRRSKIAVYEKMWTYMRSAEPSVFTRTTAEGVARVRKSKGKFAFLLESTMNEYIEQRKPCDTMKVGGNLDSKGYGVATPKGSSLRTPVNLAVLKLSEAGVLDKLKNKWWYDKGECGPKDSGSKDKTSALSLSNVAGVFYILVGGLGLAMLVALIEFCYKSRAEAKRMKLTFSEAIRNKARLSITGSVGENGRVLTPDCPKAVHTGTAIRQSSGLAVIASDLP
# experiment: Activity against human GLUR4 flip expressed in HEK293 cells assessed as glutamate-stimulated calcium influx by FLIPR assay
# Assay type: functional, cell-based
pEC50: −log10 of the molar value.

[
  {
    "molecule": "CCc1sc(C(=O)O)c(-c2ccc(C(C)(C)C)cc2)c1C#N",
    "pEC50": 6.74
  },
  {
    "molecule": "CN(C)c1sc(C(=O)O)c(-c2ccc(C(C)(C)C)cc2)c1C#N",
    "pEC50": 6.32
  },
  {
    "molecule": "C[S+]([O-])c1sc(C(=O)O)c(-c2ccc(C(C)(C)C)cc2)c1C#N (stereo not given)",
    "pEC50": 6.31
  },
  {
    "molecule": "CCSc1sc(C(=O)O)c(-c2ccc(C(C)(C)C)cc2)c1C#N",
    "pEC50": 6.36
  },
  {
    "molecule": "CC(C)Sc1sc(C(=O)O)c(-c2ccc(C(C)(C)C)cc2)c1C#N",
    "pEC50": 5.73
  }
]
